tested on: mechanical hyperalgesia associated with STZ-induced diabetes; assay: STZ-induced diabetes mechanical hyperalgesia (neuropathic pain); type: in vivo, rat; settings: 10 mg/kg i.p., 0.5 hrs
ENDPOINT LABEL: MPE 0.5 hrs. (%)
Kindly answer with a numeric value in %, unit omitted.

c1ccc(-c2ncc3cc(-n4ccnc4)ccc3n2)cc1 [Example 1] | 41
COc1cccc(C2(O)CCCCC2CN(C)C)c1 (stereo not shown) [Tramadol, reference compound] | 58
c1cn(-c2ccc3nc(-c4ccc5c(c4)OCO5)ncc3c2)cn1 [Example 3] | 141

Kindly review the next molecule as well.
The recorded MPE 0.5 hrs. for CN(C)CCC=C1c2ccccc2CCc2ccccc21 [Amitriptyline, reference compound] is 68

Ref: patent US8193353B2
